Entry source: ChEMBL document CHEMBL2396520

- target.of.assay: Leucine-rich repeat serine/threonine-protein kinase 2 (Homo sapiens, UniProt Q5S007, G2019S)
- Sequence (Q5S007 whole entry G2019S): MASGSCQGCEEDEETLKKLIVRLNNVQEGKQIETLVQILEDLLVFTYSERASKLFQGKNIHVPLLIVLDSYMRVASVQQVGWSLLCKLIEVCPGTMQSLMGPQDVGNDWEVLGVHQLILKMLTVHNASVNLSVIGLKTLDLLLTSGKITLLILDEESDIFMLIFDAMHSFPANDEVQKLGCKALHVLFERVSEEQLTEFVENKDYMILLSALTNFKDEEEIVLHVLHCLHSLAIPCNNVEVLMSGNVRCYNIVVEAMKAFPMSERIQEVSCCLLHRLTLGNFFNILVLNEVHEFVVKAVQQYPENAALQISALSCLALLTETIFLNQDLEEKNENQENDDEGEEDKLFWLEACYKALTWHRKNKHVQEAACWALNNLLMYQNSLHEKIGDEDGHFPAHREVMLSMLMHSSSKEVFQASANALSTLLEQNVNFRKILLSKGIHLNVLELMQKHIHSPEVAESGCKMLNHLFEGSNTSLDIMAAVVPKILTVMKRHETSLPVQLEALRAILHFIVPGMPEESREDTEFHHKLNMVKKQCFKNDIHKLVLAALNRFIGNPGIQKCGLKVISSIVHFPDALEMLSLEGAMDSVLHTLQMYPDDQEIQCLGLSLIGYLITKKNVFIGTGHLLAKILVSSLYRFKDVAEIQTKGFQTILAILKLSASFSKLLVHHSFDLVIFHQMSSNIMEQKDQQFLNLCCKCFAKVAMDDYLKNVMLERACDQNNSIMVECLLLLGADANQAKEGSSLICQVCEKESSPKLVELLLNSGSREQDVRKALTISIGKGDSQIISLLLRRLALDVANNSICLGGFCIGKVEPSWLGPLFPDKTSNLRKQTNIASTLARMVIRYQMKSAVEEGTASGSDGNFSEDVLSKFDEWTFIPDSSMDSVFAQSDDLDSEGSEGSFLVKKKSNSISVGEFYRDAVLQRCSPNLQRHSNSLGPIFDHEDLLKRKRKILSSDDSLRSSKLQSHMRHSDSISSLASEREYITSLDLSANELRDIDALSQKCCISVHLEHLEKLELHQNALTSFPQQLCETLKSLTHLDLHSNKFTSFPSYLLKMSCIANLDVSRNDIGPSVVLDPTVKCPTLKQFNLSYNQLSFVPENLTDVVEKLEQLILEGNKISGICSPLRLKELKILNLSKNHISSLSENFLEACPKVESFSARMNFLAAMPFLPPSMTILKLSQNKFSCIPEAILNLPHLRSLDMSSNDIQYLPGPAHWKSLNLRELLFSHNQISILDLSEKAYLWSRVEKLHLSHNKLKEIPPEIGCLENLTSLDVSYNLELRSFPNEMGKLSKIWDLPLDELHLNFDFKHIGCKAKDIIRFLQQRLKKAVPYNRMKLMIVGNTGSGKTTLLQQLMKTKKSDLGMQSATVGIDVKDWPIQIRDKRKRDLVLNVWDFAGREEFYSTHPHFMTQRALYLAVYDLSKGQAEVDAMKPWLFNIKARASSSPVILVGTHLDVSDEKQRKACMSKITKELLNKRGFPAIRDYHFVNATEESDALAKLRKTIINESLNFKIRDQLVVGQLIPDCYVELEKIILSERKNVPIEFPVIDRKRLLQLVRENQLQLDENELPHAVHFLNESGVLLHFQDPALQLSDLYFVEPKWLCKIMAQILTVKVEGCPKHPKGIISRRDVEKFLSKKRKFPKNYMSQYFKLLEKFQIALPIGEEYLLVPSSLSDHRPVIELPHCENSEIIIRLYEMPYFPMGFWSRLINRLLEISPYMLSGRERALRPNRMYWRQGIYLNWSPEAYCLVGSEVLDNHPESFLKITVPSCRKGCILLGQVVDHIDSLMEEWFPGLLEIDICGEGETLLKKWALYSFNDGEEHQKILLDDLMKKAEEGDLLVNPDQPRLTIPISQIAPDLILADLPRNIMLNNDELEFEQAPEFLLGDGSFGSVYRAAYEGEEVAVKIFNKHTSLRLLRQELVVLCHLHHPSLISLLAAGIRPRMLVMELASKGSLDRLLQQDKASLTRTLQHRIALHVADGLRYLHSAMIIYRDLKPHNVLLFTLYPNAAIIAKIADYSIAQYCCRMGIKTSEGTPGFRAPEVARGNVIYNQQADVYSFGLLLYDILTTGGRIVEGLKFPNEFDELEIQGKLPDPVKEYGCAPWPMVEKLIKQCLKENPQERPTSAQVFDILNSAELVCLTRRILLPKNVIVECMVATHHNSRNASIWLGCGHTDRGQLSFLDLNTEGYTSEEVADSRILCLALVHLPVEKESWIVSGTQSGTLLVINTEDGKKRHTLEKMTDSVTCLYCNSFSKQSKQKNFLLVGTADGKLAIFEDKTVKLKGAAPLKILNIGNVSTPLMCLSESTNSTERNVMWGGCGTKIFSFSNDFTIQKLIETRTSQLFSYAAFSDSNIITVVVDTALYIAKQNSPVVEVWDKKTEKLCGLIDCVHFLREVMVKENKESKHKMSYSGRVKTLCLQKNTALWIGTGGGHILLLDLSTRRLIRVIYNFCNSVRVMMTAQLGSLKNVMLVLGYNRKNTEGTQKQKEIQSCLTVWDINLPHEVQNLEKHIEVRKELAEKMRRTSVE
- procedure.text: Inhibition of human recombinant LRRK2 G2019S mutant using biotin-LRRKtide as substrate preincubated for 15 mins prior to substrate addition measured after 60 mins by TR-FRET assay
pIC50: −log10 of the molar value.
measured.quantity: pIC50

• COc1cc(N2CCOCC2)ccc1Nc1ncc(F)c(Nc2ccccc2NS(C)(=O)=O)n1 = 8.15
